target: human GABAA α1β3γ2 receptor (Homo sapiens (Human), UniProt P14867+P18507); experiment: Radioligand binding assay, competition for [3H]Flumazenil, γ2-containing GABAA subtypes; conditions: Log[Ki α1β3γ2 (nM)/Ki α2β2γ1 (nM)]
test readout: LogSel
Format: numeric value only, no unit, no commentary.

Look over these answered cases.
Cc1nnc2n1-c1sc3c(c1C(c1c(F)cccc1Cl)=NC2)C[C@@H](C(F)F)C3 : 1.87
Cc1nc2n(n1)-c1sc3c(c1C(c1c(F)cccc1F)=N[C@H]2C)C[C@@H](C(F)F)C3 : 2.28
Cc1nnc2n1-c1sc3c(c1C(c1c(F)cccc1F)=NC2)C[C@@H](C#N)C3 : 1.71
Cc1ncc2n1-c1ccc(Cl)cc1C(c1ccccc1F)=NC2 [Midazolam, reference compound] : −2.2
Cc1nnc2n1-c1sc3c(c1C(c1ccccc1Cl)=NC2)CCC3 [RE-A, reference compound] : −0.42

# lookup: Cc1nnc2n1-c1ccc(Cl)cc1C(c1ccccc1Cl)=NC2 [Triazolam, reference compound] on human GABAA α1β3γ2 receptor (Homo sapiens (Human), UniProt P14867+P18507), LogSel = −1.5

Recorded LogSel for Cc1nnc2n1-c1ccc(Cl)cc1C(c1ccccc1)=NC2 [Alprazolam, reference compound] on human GABAA α1β3γ2 receptor (Homo sapiens (Human), UniProt P14867+P18507) was −2.3

The reported human GABAA α1β3γ2 receptor (Homo sapiens (Human), UniProt P14867+P18507) LogSel of Cc1nnc2n1-c1sc3c(c1C(c1c(F)cccc1Cl)=N[C@H]2C)C[C@@H](C(F)F)C3 is 2.01

Hey, human GABAA α1β3γ2 receptor (Homo sapiens (Human), UniProt P14867+P18507) data for Cc1cnc2n1-c1sc3c(c1C(c1c(F)cccc1F)=N[C@H]2C)C[C@@H](C(F)F)C3 : LogSel came out at 1.73

Note to self: LogSel of Cc1nc2n(n1)-c1sc3c(c1C(c1c(F)cccc1F)=N[C@H]2C)C[C@H](C(F)F)C3 with human GABAA α1β3γ2 receptor (Homo sapiens (Human), UniProt P14867+P18507) was 2.06

Reported LogSel (human GABAA α1β3γ2 receptor (Homo sapiens (Human), UniProt P14867+P18507)) for entry C[C@@H]1N=C(c2c(F)cccc2F)c2c(sc3c2C[C@@H](C(F)F)C3)-n2nc(C(=O)N3CCS(=O)(=O)CC3)nc21 is 2.21

The molecule Cc1nnc2n1-c1sc3c(c1C(c1c(F)cccc1Cl)=NC2)C[C@@H](C#N)C3 , tested on human GABAA α1β3γ2 receptor (Homo sapiens (Human), UniProt P14867+P18507), showed LogSel of 1.69

* * *

target: human GABAA α1β3γ2 receptor (Homo sapiens (Human), UniProt P14867+P18507); test: Radioligand binding assay, competition for [3H]Flumazenil, γ2-containing GABAA subtypes; settings: Log[Ki α1β3γ2 (nM)/Ki α2β2γ1 (nM)]
test readout: LogSel
In your answer, state the number alone without any accompanying words.

Examples with answers:
C[C@@H]1N=C(c2c(F)cccc2Cl)c2c(sc3c2C[C@@H](C(F)F)C3)-n2c(C3CC3)nnc21 [Example 11] : 2.04
Cc1nnc2n1-c1sc3c(c1C(c1c(F)cccc1F)=N[C@H]2C)C[C@@H](C(F)(F)F)C3 [Example 13] : 1.64
Cc1nnc2n1-c1sc3c(c1C(c1c(F)cccc1F)=NC2)C[C@@H](C)C3 [Example 14] : 1.56
C[C@@H]1N=C(c2c(F)cccc2F)c2c(sc3c2C[C@@H](C(F)F)C3)-n2c(C3CC3)nnc21 [Example 8] : 2.00
CCOC(=O)C1Cc2sc3c(c2C1)C(c1ccccc1Cl)=NCc1nnc(C)n1-3 (stereo not shown) [RE-B, reference compound] : 0.22
C[C@@H]1N=C(c2c(F)cccc2F)c2c(sc3c2C[C@@H](C(F)F)C3)-n2nc(C(=O)NCCO)nc21 [Example 18] : 2.03

Now turn to the next compound.
Given item Cc1nnc2n1-c1sc3c(c1C(c1c(F)cccc1F)=N[C@H]2C)CCC3 [RE-C, reference compound] , the value recorded as its LogSel is −0.07

* * *

target: human GABAA α1β2γ1 receptor (Homo sapiens (Human), UniProt P14867+Q8N1C3); assay: Radioligand binding assay, competition for [3H]RO7239181, γ1-containing GABAA subtypes
Recorded pKi for the following compounds
Please express pKi as -log10 of the molar concentration.

Cc1nnc2n1-c1sc3c(c1C(c1c(F)cccc1F)=N[C@H]2C)C[C@@H](C(F)F)C3 [Example 5] : 7.84
Cc1nnc2n1-c1sc3c(c1C(c1c(F)cccc1Cl)=NC2)C[C@@H](C#N)C3 [Example 1] : 7.32
Cc1nnc2n1-c1sc3c(c1C(c1c(F)cccc1F)=N[C@H]2C)CCC3 [RE-C, reference compound] : 8.59

Attention now turns to another entry.
Lab note: measured pKi of Cc1nnc2n1-c1sc3c(c1C(c1c(F)cccc1F)=NC2)C[C@@H](C(F)F)C3 [Example 3] was 7.77

* * *

Property: pKi; scope: individual compounds
Molecular target: human GABAA α1β3γ2 receptor (Homo sapiens (Human), UniProt P14867+P18507)
Assay: Radioligand binding assay, competition for [3H]Flumazenil, γ2-containing GABAA subtypes
Settings: HEK293F cell membranes, [3H]Flumazenil 1 nM, mean of two determinations; read-out: Ki h-GABAA α1β3γ2
Description: Membrane Preparation and Binding Assay for γ2-containing GABAA Subtypes The affinity of compounds at GABAA γ2 subunit-containing receptors was measured by competition for [^3H]Flumazenil (81.1 Ci/mmol; Roche) binding to HEK293F cells expressing human (transiently transfected) receptors of composition α1β3γ2. […]
Note: pKi values are expressed as the negative base-10 logarithm of concentration in M.

Examples from the recorded data:
C[C@@H]1N=C(c2c(F)cccc2F)c2c(sc3c2C[C@@H](C(F)F)C3)-n2nc(C(=O)NCCO)nc21 : 6.21
Cc1nnc2n1-c1sc3c(c1C(c1c(F)cccc1F)=NC2)C[C@@H](C#N)C3 : 5.66
Cc1nnc2n1-c1sc3c(c1C(c1c(F)cccc1Cl)=NC2)C[C@@H](C#N)C3 : 5.90
C[C@@H]1N=C(c2c(F)cccc2F)c2c(sc3c2C[C@@H](C(F)F)C3)-n2nc(C(=O)N3CCS(=O)(=O)CC3)nc21 : 6.06

Consider now this further compound.
Known value: human GABAA α1β3γ2 receptor (Homo sapiens (Human), UniProt P14867+P18507) pKi of the compound CCOC(=O)C1Cc2sc3c(c2C1)C(c1ccccc1Cl)=NCc1nnc(C)n1-3 (centres unmarked) [RE-B, reference compound] equals 5.91

* * *

target: human GABAA α2β2γ1 receptor (Homo sapiens (Human), UniProt P47869+Q8N1C3); experiment: Radioligand binding assay, competition for [3H]RO7239181, γ1-containing GABAA subtypes
test readout: pKi
In plain terms, pKi is the concentration in mol/L turned into minus its base-10 logarithm.

In the examples that follow, each entry is paired with its recorded pKi.
Fc1cccc(Cl)c1C1=NCc2nnc(C3CC3)n2-c2sc3c(c21)C[C@@H](C(F)F)C3 [Example 6] : 8.18
C[C@@H]1N=C(c2c(F)cccc2F)c2c(sc3c2C[C@@H](C(F)F)C3)-n2c(CO)cnc21 [Example 21] : 8.53
Cc1nnc2n1-c1sc3c(c1C(c1ccccc1Cl)=NC2)CCC3 [RE-A, reference compound] : 7.76

pKi recorded for this compound, Cc1nnc2n1-c1sc3c(c1C(c1c(F)cccc1Cl)=NC2)C[C@@H](C(F)F)C3 [Example 4] , is 8.34

Record Cc1nnc2n1-c1sc3c(c1C(c1c(F)cccc1Cl)=NC2)C[C@@H](C#N)C3 [Example 1] . Reported pKi: 7.60

// recorded pKi for C[C@@H]1N=C(c2c(F)cccc2Cl)c2c(sc3c2C[C@@H](C(F)F)C3)-n2c(C3CC3)nnc21 [Example 11] : 7.99

For record Cc1nc2n(n1)-c1sc3c(c1C(c1c(F)cccc1F)=N[C@H]2C)C[C@H](C(F)F)C3 [Example 17] the listed pKi is 7.24

// recorded pKi for Cc1nnc2n1-c1sc3c(c1C(c1c(F)cccc1F)=NC2)C[C@@H](C)C3 [Example 14] : 8.55

Recorded pKi (compound Cc1cnc2n1-c1sc3c(c1C(c1c(F)cccc1F)=N[C@H]2C)C[C@@H](C(F)F)C3 [Example 20] ): 8.65

Item: C[C@@H]1N=C(c2c(F)cccc2F)c2c(sc3c2C[C@@H](C(F)F)C3)-n2nc(C(=O)NCCO)nc21 [Example 18] | pKi: 8.24

* * *

Molecular target: human GABAA α5β2γ1 receptor (Homo sapiens (Human), UniProt P31644+Q8N1C3)
Assay: Radioligand binding assay, competition for [3H]RO7239181, γ1-containing GABAA subtypes
Conditions: membranes from HEK293F cells, mean of two determinations
Method: Membrane Preparation and Binding Assay for γ1-containing GABAA Subtypes The affinity of compounds at GABAA γ1 subunit-containing receptors was measured by competition for [^3H]RO7239181 (67.3 Ci/mmol: Roche) binding to membranes from HEK293F cells (ThermoFisher R79007) expressing human (transiently transfected) receptors of composition α5β2γ1, α2β2γ1, α1β2γ1. […]
Overview of reported Ki across a group of compounds:
Note: unit nM is implicit; provide only the numeric part.

Please review the entries below; each comes with its answer.
Cc1cnc2n1-c1sc3c(c1C(c1c(F)cccc1F)=N[C@H]2C)C[C@@H](C(F)F)C3 [Example 20] : 3.6
Cc1nnc2n1-c1sc3c(c1C(c1c(F)cccc1F)=NC2)C[C@@H](C(F)F)C3 [Example 3] : 1.8
Cc1nnc2n1-c1sc3c(c1C(c1c(F)cccc1F)=NC2)C[C@@H](C)C3 [Example 14] : 1.6
Fc1cccc(Cl)c1C1=NCc2nnc(C3CC3)n2-c2sc3c(c21)C[C@@H](C(F)F)C3 [Example 6] : 3.4
Cc1nc2n(n1)-c1sc3c(c1C(c1c(F)cccc1F)=N[C@H]2C)C[C@H](C(F)F)C3 [Example 17] : 31.6
C[C@@H]1N=C(c2c(F)cccc2F)c2c(sc3c2C[C@@H](C(F)F)C3)-n2nc(C(=O)NCCO)nc21 [Example 18] : 2.5
C[C@@H]1N=C(c2c(F)cccc2F)c2c(sc3c2C[C@H](C(F)F)C3)-n2c(CO)cnc21 [Example 22] : 44.3

// next item, Ki requested
The compound listed as Cc1nnc2n1-c1sc3c(c1C(c1c(F)cccc1F)=N[C@H]2C)C[C@@H](C(F)(F)F)C3 [Example 13] shows Ki equal to 5.9

Where do the numbers come from? From patent US20240190889A1.
